B1: library; numbered along this chain (parent)
chain: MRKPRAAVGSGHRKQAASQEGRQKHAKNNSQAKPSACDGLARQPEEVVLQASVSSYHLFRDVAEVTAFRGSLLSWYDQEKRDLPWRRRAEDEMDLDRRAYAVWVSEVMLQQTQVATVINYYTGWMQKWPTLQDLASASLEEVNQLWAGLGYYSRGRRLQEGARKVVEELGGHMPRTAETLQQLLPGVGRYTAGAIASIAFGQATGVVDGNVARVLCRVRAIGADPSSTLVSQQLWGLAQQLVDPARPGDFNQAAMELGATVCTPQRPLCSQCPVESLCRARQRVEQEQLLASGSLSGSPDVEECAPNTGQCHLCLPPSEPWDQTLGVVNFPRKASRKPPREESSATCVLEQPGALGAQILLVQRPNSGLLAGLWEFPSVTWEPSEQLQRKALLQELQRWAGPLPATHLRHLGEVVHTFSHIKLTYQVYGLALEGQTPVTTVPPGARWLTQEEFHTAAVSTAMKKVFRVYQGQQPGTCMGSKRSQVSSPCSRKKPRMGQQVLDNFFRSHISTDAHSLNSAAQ

- Variants of: B1
- assay method text: 8OG:A repair function score (normalized; synonymous = 0, nonsense = -1) (normalized log-likelihood score); higher = more repair activity (WT-like);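 further: cells sorted at 72 h after reporter transfection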
- assay conditions: with 8OG:A DNA repair reporter (GFP) in HEK-293 MUTYH KO cells
Please assign a class to every record based on measured 8OG:A repair function score, with ranges LOW = under -0.3, MID = from -0.3 up to -0.06, HIGH = -0.06 and over

Q: Band assignment needed for `S294M` please.
A: HIGH

Q: Band assignment needed for `L109S` please.
A: MID

Q: Band assignment needed for `V500I` please.
A: HIGH

Q: Band assignment needed for `A280G` please.
A: MID

Q: Band assignment needed for `P331K` please.
A: LOW

Q: Band assignment needed for `N307S` please.
A: HIGH

Q: Band assignment needed for `V500L` please.
A: HIGH

Q: Band assignment needed for `A135S` please.
A: HIGH

Q: Band assignment needed for `Q159D` please.
A: LOW

Q: Band assignment needed for `C311L` please.
A: LOW

Q: Band assignment needed for `Q111L` please.
A: LOW

Q: Band assignment needed for `D243S` please.
A: LOW

Q: Band assignment needed for `V327T` please.
A: MID

Q: Band assignment needed for `M173E` please.
A: LOW

Q: Band assignment needed for `Q473F` please.
A: HIGH

Q: Band assignment needed for `L257H` please.
A: LOW

Q: Band assignment needed for `R69Y` please.
A: LOW

Q: Band assignment needed for `P316Y` please.
A: MID

Q: Band assignment needed for `D77W` please.
A: MID

Q: Band assignment needed for `L289V` please.
A: HIGH

Q: Band assignment needed for `Q351N` please.
A: MID
